tested on: p-p38 in HCT-116 cells; experiment: Phospho-p38 Meso Scale ELISA assay, TNFα-stimulated HCT-116 cells; type: cell-based; conditions: Homo sapiens, read-out: mean HCT-116 p-p38 ELISA IC50 (Col. C)
Where a name gives a salt, the structure may show the parent alone.
Measurement Label: IC50

// solved cases for IC50 follow
> print(dat)
                                   compound      measurement.target  measurement.label  readout.value
1  Nc1ncc(-c2cnn(C3CCN(C(=O)C4CCC4)CC3)c2)c2cc(-c3cccc4cnccc34)oc12  p-p38 in HCT-116 cells               IC50    0.1 to 1 µM
2  Nc1ncc(-c2cnn([C@H]3CC[C@H](O)CC3)c2)c2cc(-c3c(F)ccc4cnsc34)oc12 [Example 240, diformate salt]  p-p38 in HCT-116 cells               IC50    0.1 to 1 µM
3  Nc1ncc(-c2cn[nH]c2)c2cc(-c3cccc4cnccc34)oc12  p-p38 in HCT-116 cells               IC50    0.1 to 1 µM
4  CCSc1ccccc1-c1cc2c(-c3cnn(C4CCN(C(C)=O)CC4)c3)cnc(N)c2o1  p-p38 in HCT-116 cells               IC50    0.1 to 1 µM
5  CC(=O)N1CCC(n2cc(-c3cnc(N)c4oc(-c5cccc(C#N)c5)cc34)cn2)CC1  p-p38 in HCT-116 cells               IC50    0.1 to 1 µM
6  CC(=O)N1CCC(n2cc(-c3cnc(N)c4oc(-c5cccc([N+](=O)[O-])c5C)cc34)cn2)CC1  p-p38 in HCT-116 cells               IC50    0.1 to 1 µM

query: Requested field: IC50. Item: COCC(=O)N1CCC(n2cc(-c3cnc(N)c4oc(-c5cccc6cnccc56)cc34)cn2)CC1
result: 0.1 to 1 µM

query: Value lookup for IC50; key = CC(=O)N1CCC(n2cc(-c3cnc(N)c4oc(-c5cccc6nn(C)cc56)cc34)cn2)CC1
result: 1 to 10 µM

query: // IC50 lookup, key: CC(=O)N1CCC(n2cc(-c3cnc(N)c4oc(-c5cncc6cnsc56)cc34)cn2)CC1 [Example 262, Diformate Salt]
result: 0.1 to 1 µM

query: Sample COCCN1CCC(n2cc(-c3cnc(N)c4oc(-c5cccc6cnccc56)cc34)cn2)CC1 — what was its IC50?
result: 0.1 to 1 µM

query: I would be grateful if you could share the reported IC50 for CC(=O)N1CCC(n2cc(-c3cnc(N)c4oc(-c5c(C)n[nH]c5C)cc34)cn2)CC1 .
result: 1 to 10 µM

query: Entry under review: CC(=O)N1CCC(n2cc(-c3cnc(N)c4oc(-c5cccc6cnsc56)cc34)cn2)CC1 . Reported IC50?
result: < 0.1 µM

query: Reported IC50 for COc1cc(-c2cc3c(-c4cnn(C5CCN(C(C)=O)CC5)c4)cnc(N)c3o2)ccc1O : what is it?
result: 1 to 10 µM

query: # input compound: C[C@]1(O)CC[C@@H](n2cc(-c3cnc(N)c4oc(-c5cccc6cnccc56)cc34)cn2)CC1 ; wanted: its IC50
result: 0.1 to 1 µM

query: Recorded IC50 for CC(=O)N1CCC(n2cc(-c3cnc(N)c4oc(-c5ccc(O)cc5C)cc34)cn2)CC1 , please?
result: 0.1 to 1 µM

query: Entry CC(=O)N1CCC(n2cc(-c3cnc(N)c4oc(-c5ccc6[nH]nc(C#N)c6c5)cc34)cn2)CC1 has what IC50?
result: > 10 µM

query: Suppose we examine the compound CC(=O)N1CCC(n2cc(-c3cnc(N)c4oc(-c5c[nH]c6cc(C#N)ccc56)cc34)cn2)CC1 ; what IC50 value has been reported?
result: 0.1 to 1 µM

query: Endpoint output: IC50 of CC(=O)N1CCC(n2cc(-c3cnc(N)c4oc(-c5scc6c5OCCO6)cc34)cn2)CC1 . Value?
result: 1 to 10 µM

query: Query: IC50; subject: Nc1ncc(-c2cnn(C3CCCCC3)c2)c2cc(-c3c[nH]c4cnccc34)oc12
result: 0.1 to 1 µM

query: Report IC50 for Nc1ncc(-c2cnn(C3CCN(C(=O)C4CC4)CC3)c2)c2cc(-c3cccc4cnccc34)oc12 please.
result: 0.1 to 1 µM

query: Quick one: IC50 for Nc1ncc(-c2cnn([C@H]3CC[C@H](O)CC3)c2)c2cc(-c3cncc4cnsc34)oc12 [Example 267, Diformate Salt] ?
result: 0.1 to 1 µM

query: Report IC50 for CC(=O)N1CCC(n2cc(-c3cnc(N)c4oc(-c5cccc6[nH]ccc56)cc34)cn2)CC1 please.
result: 0.1 to 1 µM
